- System: E. coli BW25113
- assay_notes: relative growth (fraction of control); higher = less inhibition
- condition_notes: 50 µM
Over roughly 2,300 compounds, “relative growth” has its median near 1; the lowest 2% begin near 0.046. A selection follows.
Binary call on relative growth: yes from 1 upward, no beneath that.

| molecule | group_label |
| --- | --- |
| COc1ccc2c3c1OC1CC(O)C=CC31CCN(C)C2 (configuration not stated) | no |
| CCN1CCCC1CNC(=O)c1cc(S(N)(=O)=O)ccc1OC (configuration not stated) | yes |
| CCC1OC(=O)CC(O)C(C)C(OC2OC(C)C(OC3CC(C)(O)C(O)C(C)O3)C(N(C)C)C2O)C(CC=O)CC(C)C(=O)C=CC(C)=CC1COC1OC(C)C(O)C(OC)C1OC.O=C(O)C(O)C(O)C(=O)O (configuration not stated) | yes |
| CCC1OC(=O)C(C)C(OC2CC(C)(OC)C(O)C(C)O2)C(C)C(OC2OC(C)CC(N(C)C)C2O)C(C)(O)CC(C)C(=O)C(C)C(O)C1(C)O.CCCCCCCCCCCCCCCCCC(=O)O (configuration not stated) | no |
| CC12CCC(CC1)C(C)(C)O2 | yes |

*Q* Could you verify whether the entry CC1OC(OC2C(O)CC(OC3C(O)CC(OC4CCC5(C)C(CCC6C5CC(O)C5(C)C(C7=CC(=O)OC7)CCC65O)C4)OC3C)OC2C)CC(O)C1O (configuration not stated) shows relative growth of no less than 1?
*A* yes

* * *

- Test system: E. coli BW25113
- assay_notes: relative growth (fraction of control); higher = less inhibition
- condition_notes: 50 µM
Whole data set: some 2,300 compounds, median “relative growth” near 1, cut for the lowest 2% near 0.046. A selection follows.
quantity_measured: relative growth
Just the number, please, no unit attached.

Reference set, count: 3
| molecule | relative growth |
| --- | --- |
| CN(C)CCOC(c1ccc(Cl)cc1)c1ccccn1.O=C(O)C=CC(=O)O (stereo not given) | 0.986 |
| Cn1c(=O)c2[nH]cnc2n(C)c1=O | 1.07 |
| C[N+](C)(C)CCO.Cn1c(=O)c2[n-]cnc2n(C)c1=O | 1.06 |

Reported relative growth for CN(C)CCOc1ccc(C(=C(CCCl)c2ccccc2)c2ccccc2)cc1.O=C(O)CC(O)(CC(=O)O)C(=O)O was 0.722

relative growth reading for NNC(=O)c1ccncc1.Nc1ccc(C(=O)O)c(O)c1 : 0.943

Lab note: measured relative growth of O.OCC(O)C(O)C(OC1OC(CO)C(O)C(O)C1O)C(O)CO (stereo not given) was 0.993

* * *

- Tested on: E. coli BW25113
- assay_notes: relative growth (fraction of control); higher = less inhibition
- condition_notes: 50 µM
In all, about 2,300 compounds were measured (“relative growth”: median about 1, lowest 2% from about 0.046 on). A selection follows.
Reported relative growth values for the following molecules.
I'd appreciate a reply containing only the number, no unit.

Here is how some molecules turned out for relative growth.
| molecule | relative growth |
| --- | --- |
| NCCCC(N)C(=O)O.NCCCC(N)C(=O)O.O=C(O)CCC(=O)C(=O)O | 1.09 |
| O=C(O)c1cc2ccccc2c(Cc2c(O)c(C(=O)O)cc3ccccc23)c1O.OCCOCCN1CCN(C(c2ccccc2)c2ccc(Cl)cc2)CC1 | 1.17 |
| CC(=O)OCC(=O)C1(O)C(C)CC2C3CCC4=CC(=O)C=CC4(C)C3(F)C(O)CC21C (centres undefined) | 0.913 |

# evaluate next
Memo: CCN(CCCc1ccccc1)CCCc1ccccc1.O=C(O)CC(O)(CC(=O)O)C(=O)O , reported relative growth: 0.881

* * *

As shown below, each of these compounds has a reported relative growth value.
- System: E. coli BW25113
- assay_notes: relative growth (fraction of control); higher = less inhibition
- condition_notes: 50 µM
The full ranking holds about 2,300 compounds; the median of “relative growth” is about 1, and the lowest 2% start at about 0.046. The list is a sample of the results.
Could you keep your reply to the number by itself?

// relative growth lookup, compound = CCN(CC)CCOCCOC(=O)C(CC)(CC)c1ccccc1.O=C(O)CC(O)(CC(=O)O)C(=O)O , result: 1.1

Input Cl.Cl.O=C(O)COCCN1CCN(C(c2ccccc2)c2ccc(Cl)cc2)CC1 (centres undefined) . Output relative growth: 0.982

The compound identified as CC12CCC3C(=CCc4cc(O)ccc43)C1CCC2=O (centres undefined) registered its relative growth at 0.988

// recorded relative growth for CCC(C)C1OC2(CCC1C)CC1CC(CC=C(C)C(OC3CC(OC)C(OC4CC(OC)C(O)C(C)O4)C(C)O3)C(C)C=CC=C3COC4C(O)C(C)=CC(C(=O)O1)C34O)O2 (centres undefined) : 0.874

* * *

- System: E. coli BW25113
- assay_notes: relative growth (fraction of control); higher = less inhibition
- condition_notes: 50 µM
In all, about 2,300 compounds were measured (“relative growth”: median about 1, lowest 2% from about 0.046 on). Only a sample is shown.
Listed next: entries and their corresponding relative growth.

# count of solved cases: 3
| compound | relative growth |
| --- | --- |
| CN(C)CCC(c1ccccc1)c1ccccn1.O=C(O)C=CC(=O)O (centres undefined) | 0.966 |
| Oc1ccc(Cl)c2cccnc12 | 0.421 |
| CCC1OC(=O)C(C)C(OC2CC(C)(OC)C(O)C(C)O2)C(C)C(OC2OC(C)CC(N(C)C)C2O)C(C)(O)CC(C)C(=O)C(C)C(O)C1(C)O (centres undefined) | 0.394 |

GET /values?item= CN(C)CCOC(C)(c1ccccc1)c1ccccn1.O=C(O)CCC(=O)O (centres undefined) &system= E. coli BW25113 returns relative growth: 0.787

* * *

- Test system: E. coli BW25113
- assay_notes: relative growth (fraction of control); higher = less inhibition
- condition_notes: 50 µM
Whole data set: some 2,300 compounds, median “relative growth” near 1, cut for the lowest 2% near 0.046. A selection follows.
quantity_measured: relative growth
Reply briefly: the number, and no unit.

Illustrative cases are given below, each with its answer.
| compound | relative growth |
| --- | --- |
| O=C(O)CC(O)(CC(=O)O)C(=O)O | 1.02 |
| Cc1cc2nc3c(=O)[nH]c(=O)nc-3n(CC(O)C(O)C(O)COP(=O)([O-])O)c2cc1C.[Na+] (stereo unspecified) | 0.981 |

# relative growth of C[n+]1cc2c3c(ccc2c2ccc4cc5c(cc4c21)OCO5)OCO3.[Cl-] = 0.639

Measured relative growth, CN1C(C)(C)CCCC1(C)C.O=C(O)C(O)C(O)C(=O)O : 0.993

The compound listed as COCCc1ccc(OCC(O)CNC(C)C)cc1.O=C(O)C(O)C(O)C(=O)O (stereo unspecified) shows relative growth equal to 1.17

Data point: CN(C)CC(c1ccc(O)cc1)C1(O)CCCCC1.O=C(O)CCC(=O)O (stereo unspecified) ; relative growth = 1.14

Item: Cc1ccccc1C(OCCN(C)C)c1ccccc1.O=C(O)CC(O)(CC(=O)O)C(=O)O (stereo unspecified) | relative growth: 1.01

relative growth recorded for this compound, CNCC(O)c1ccc(O)c(O)c1.O=C(O)C(O)C(O)C(=O)O (stereo unspecified) , is 1.17

relative growth recorded for this compound, Cl.N[C@H](Cc1ccccc1)C(=O)O , is 1

* * *

The following compounds are listed with their measured relative growth values.
- Test system: E. coli BW25113
- assay_notes: relative growth (fraction of control); higher = less inhibition
- condition_notes: 50 µM
Whole data set: some 2,300 compounds, median “relative growth” near 1, cut for the lowest 2% near 0.046. A selection follows.
Returns: the value as a bare number; no unit string appended.

Below are worked cases with known answers.
| compound | relative growth |
| --- | --- |
| O=c1[nH]cc(F)c(=O)[nH]1 | 0.475 |
| Cl.NC(=O)CCC(N)C(=O)O (centres undefined) | 1.03 |
| CCCCCCCCCCCCCCCC(=O)NCCO | 1.06 |
| CN1CCC(=C2c3ccccc3CCc3sccc32)CC1.O=C(O)CC(O)C(=O)O | 1.07 |

// C#CCCCCCCCCCCCC(O)CC(O)COC(C)=O.C=CCCCCCCCCCCCC(O)CC(O)COC(C)=O (centres undefined) : relative growth value = 1.03

* * *

- System: E. coli BW25113
- assay_notes: relative growth (fraction of control); higher = less inhibition
- condition_notes: 50 µM
The full ranking holds about 2,300 compounds; the median of “relative growth” is about 1, and the lowest 2% start at about 0.046. These entries were drawn from the full list.
The entries below come with measured relative growth values attached.
No unit in the answer, please; the number alone is enough.

Some entries whose results are on file:
| molecule | measured_number |
| --- | --- |
| CCN(CC)CCOc1ccc(C(=C(Cl)c2ccccc2)c2ccccc2)cc1.O=C(O)CC(O)(CC(=O)O)C(=O)O | 0.86 |
| C[N+](C)(CCOc1ccccc1)Cc1ccccc1.O=C([O-])c1cc2ccccc2cc1O | 0.93 |
| CC[N+](CC)(CC(=O)Nc1c(C)cccc1C)Cc1ccccc1.O=C([O-])c1ccccc1 | 1.01 |
| COc1cccc2c1C(=O)c1c(O)c3c(c(O)c1C2=O)CC(O)(C(=O)CO)CC3OC1CC(N)C(O)C(C)O1.Cl (configuration not stated) | 1.02 |
| C1CCC(C(CC2CCCCN2)C2CCCCC2)CC1.O=C(O)C=CC(=O)O (configuration not stated) | 0.52 |

In plain terms, O=c1ccc2ccccc2o1 has a documented relative growth of 1.09

Memo: CC(=O)c1ccc2c(c1)N(CCCN(C)C)c1ccccc1S2.O=C(O)C=CC(=O)O , reported relative growth: 0.983

The reported relative growth of the molecule O=C(O)C=CC(=O)O.OCCOCCN1CCN(C2=Nc3ccccc3Sc3ccccc32)CC1 was 0.3

Looking up CC12CCC3c4ccc(O)cc4CCC3C1CC(O)C2O (configuration not stated) , I found its relative growth recorded as 1.07

Short answer for CC(CN(C)C)CN1c2ccccc2Sc2ccccc21.O=C(O)C(O)C(O)C(=O)O (configuration not stated) : relative growth was 0.971

According to the records, this molecule CCOC(=O)C1=C(COCCN)NC(C)=C(C(=O)OC)C1c1ccccc1Cl.O=S(=O)(O)c1ccccc1 (configuration not stated) displays relative growth of 0.929

So for CCN(CC)C(=O)N1CCN(C)CC1.O=C(O)CC(O)(CC(=O)O)C(=O)O , the logged relative growth turned out to be 1.1

The recorded relative growth for entry CN1CCc2nc(C(=O)NC3CC(C(=O)N(C)C)CCC3NC(=O)C(=O)Nc3ccc(Cl)cn3)sc2C1.Cc1ccc(S(=O)(=O)O)cc1.O (configuration not stated) equals 1.01

Entry Nc1nc(N)nc(-c2cc(Cl)ccc2Cl)n1.O=C(O)C=CC(=O)O , relative growth reported as 1.04

Query Cc1ccc(S(=O)(=O)O)cc1.NC1CCN(c2nc3c(cc2F)c(=O)c(C(=O)O)cn3-c2ccc(F)cc2F)C1.O (configuration not stated) yields relative growth of 0.0925

Consider CN1CCCC1CCOC(C)(c1ccccc1)c1ccc(Cl)cc1.O=C(O)C=CC(=O)O (configuration not stated) . Its measured relative growth is 1.01

For C#CCCCCCCCCCCCC(O)CC(O)CO.C=CCCCCCCCCCCCC(O)CC(O)CO (configuration not stated) the molecule record lists relative growth as 0.979

Summary for this molecule, Cc1cc(C=Cc2ccc3cc(N(C)C)ccc3[n+]2C)c(C)n1-c1ccccc1.O=C([O-])c1cc2ccccc2c(Cc2c(O)c(C(=O)O)cc3ccccc23)c1O : relative growth is 0.996

# relative growth of CN1CCCC1c1cccnc1.O=C(O)C(O)C(O)C(=O)O.O=C(O)C(O)C(O)C(=O)O (configuration not stated) = 1.14

Sample CC(CN(C)C)CN1c2ccccc2CCc2ccccc21.O=C(O)C=CC(=O)O (configuration not stated) ; relative growth observed: 1.01

The reported relative growth of the molecule CN(CCOc1ccc(CC2SC(=O)NC2=O)cc1)c1ccccn1.O=C(O)C=CC(=O)O (configuration not stated) was 0.921

relative growth measured on CC(C)NCC(O)COc1ccc(COCCOC(C)C)cc1.O=C(O)C=CC(=O)O (configuration not stated) = 1.04
